Test Target: full-length TcdB (TcdB1-2366), VPI10463 (Clostridioides difficile strain VPI10463, UniProt P18177 1-2366)
Sequence (P18177 whole entry): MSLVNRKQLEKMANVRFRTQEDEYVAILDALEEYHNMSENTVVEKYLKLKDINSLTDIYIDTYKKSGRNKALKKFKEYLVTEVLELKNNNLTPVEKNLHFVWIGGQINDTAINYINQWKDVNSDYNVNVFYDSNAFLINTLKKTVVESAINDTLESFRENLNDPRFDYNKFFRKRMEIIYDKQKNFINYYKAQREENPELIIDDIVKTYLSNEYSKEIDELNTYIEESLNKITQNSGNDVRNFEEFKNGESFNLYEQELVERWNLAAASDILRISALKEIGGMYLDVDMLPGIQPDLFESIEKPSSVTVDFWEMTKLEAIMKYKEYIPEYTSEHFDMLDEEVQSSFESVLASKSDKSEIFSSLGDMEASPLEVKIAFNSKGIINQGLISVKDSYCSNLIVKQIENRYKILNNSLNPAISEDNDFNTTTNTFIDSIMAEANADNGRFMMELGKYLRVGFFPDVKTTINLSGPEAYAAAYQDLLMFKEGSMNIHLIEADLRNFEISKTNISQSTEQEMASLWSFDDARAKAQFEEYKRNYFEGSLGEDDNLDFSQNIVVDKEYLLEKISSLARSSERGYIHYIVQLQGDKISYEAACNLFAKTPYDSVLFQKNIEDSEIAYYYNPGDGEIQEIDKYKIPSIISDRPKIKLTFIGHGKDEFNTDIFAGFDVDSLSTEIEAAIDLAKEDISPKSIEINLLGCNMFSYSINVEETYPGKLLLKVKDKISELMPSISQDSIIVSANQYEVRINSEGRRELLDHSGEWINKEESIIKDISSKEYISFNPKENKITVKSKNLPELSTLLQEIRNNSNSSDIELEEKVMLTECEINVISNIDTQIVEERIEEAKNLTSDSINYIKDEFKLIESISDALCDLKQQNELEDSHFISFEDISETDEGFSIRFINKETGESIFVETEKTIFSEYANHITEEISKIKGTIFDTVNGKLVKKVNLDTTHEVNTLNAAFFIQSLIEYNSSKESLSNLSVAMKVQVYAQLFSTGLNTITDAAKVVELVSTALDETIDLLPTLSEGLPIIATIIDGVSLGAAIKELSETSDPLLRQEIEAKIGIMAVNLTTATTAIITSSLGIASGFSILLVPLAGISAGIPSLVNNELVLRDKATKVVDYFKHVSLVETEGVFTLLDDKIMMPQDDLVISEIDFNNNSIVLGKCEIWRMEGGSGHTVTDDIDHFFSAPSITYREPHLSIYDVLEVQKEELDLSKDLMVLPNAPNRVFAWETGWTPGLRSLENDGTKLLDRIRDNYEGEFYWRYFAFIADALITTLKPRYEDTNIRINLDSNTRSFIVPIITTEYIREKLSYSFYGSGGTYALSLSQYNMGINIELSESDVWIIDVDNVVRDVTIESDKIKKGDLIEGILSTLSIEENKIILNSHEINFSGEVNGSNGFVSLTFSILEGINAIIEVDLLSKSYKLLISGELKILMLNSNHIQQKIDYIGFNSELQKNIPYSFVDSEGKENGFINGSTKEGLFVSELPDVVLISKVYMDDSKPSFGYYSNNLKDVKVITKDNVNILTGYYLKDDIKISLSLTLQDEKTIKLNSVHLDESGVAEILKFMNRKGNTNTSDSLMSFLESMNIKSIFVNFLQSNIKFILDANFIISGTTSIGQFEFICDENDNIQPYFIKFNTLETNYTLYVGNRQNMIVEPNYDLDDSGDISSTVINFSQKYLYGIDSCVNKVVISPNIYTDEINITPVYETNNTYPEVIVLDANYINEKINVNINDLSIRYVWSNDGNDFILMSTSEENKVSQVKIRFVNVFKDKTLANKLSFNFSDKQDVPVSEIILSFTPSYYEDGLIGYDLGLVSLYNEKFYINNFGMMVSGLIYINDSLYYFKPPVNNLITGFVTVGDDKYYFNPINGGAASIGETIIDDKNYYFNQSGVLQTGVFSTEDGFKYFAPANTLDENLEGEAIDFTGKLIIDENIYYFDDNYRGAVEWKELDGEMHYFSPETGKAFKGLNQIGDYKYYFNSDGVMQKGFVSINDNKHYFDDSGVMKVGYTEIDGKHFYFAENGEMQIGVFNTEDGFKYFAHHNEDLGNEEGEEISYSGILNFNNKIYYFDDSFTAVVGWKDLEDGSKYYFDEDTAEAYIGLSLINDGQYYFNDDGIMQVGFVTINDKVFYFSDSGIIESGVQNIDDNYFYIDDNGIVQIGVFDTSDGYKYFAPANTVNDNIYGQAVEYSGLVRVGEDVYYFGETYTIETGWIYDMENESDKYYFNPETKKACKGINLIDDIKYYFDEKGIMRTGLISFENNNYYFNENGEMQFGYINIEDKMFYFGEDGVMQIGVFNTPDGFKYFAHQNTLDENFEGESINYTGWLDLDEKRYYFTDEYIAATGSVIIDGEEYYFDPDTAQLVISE
Method Summary: cell-based or functional assay
Measured Metric: EC50 (nM), TcdB neutralization, Caco-2 cells
The reply should contain only the number, in nM.

Entry B0D11 (VHH) VHH: QVQLQESGGGLAQPGGSLRLSCAASGFTFSHAVMSWFRQAPGKERELVAGWRSAGGITNYADSVKGRFTISGDNAKDVVYLQMNSLKPEDTAVYYCKAFVVGSAYWGQGTQVTVSS — recorded EC50 (nM), TcdB neutralization, Caco-2 cells = 111

Entry B0A9 (VHH) VHH: QVQLQESGGGLVQPGGSLRLTCTSSTSINIYPYMGWYRQAPGKQRERVATVNRDGNTNYLDSVKGRFTITRDDAKKTICLQMNNLEPEDTAVYYCNNFGSSSWGQGTQVTVSS — recorded EC50 (nM), TcdB neutralization, Caco-2 cells = 1.3
